Reference source: PubChem BioAssay

// reported inhibition per item
experiment: ICB984 medulloblastoma cell growth inhibition, synergistic combos for chromothripsis tumors, cisplatin or BGB combos (AID 1671451); conditions: ICB984 medulloblastoma cells, drug combinations, cisplatin combo, at 0.05 µM, stronger effect = higher value;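 also: cells exposed for 96 hours before readout; 0% = vehicle DMSO and 100% = killing by high DMSO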

[
  {
    "Molecule": "CN(C)NC(=O)CCC(=O)O",
    "inhibition (%)": -27.8
  },
  {
    "Molecule": "O=C1CCC[C@@H]2[C@H]3CCCN4CCC[C@@H](CN12)[C@@H]34",
    "inhibition (%)": 61.6
  },
  {
    "Molecule": "Cn1c(COP(=O)(NCCBr)NCCBr)cnc1[N+](=O)[O-]",
    "inhibition (%)": -39.4
  },
  {
    "Molecule": "O=C(O)CCCc1ccc(N(CCCl)CCCl)cc1",
    "inhibition (%)": -2.9
  },
  {
    "Molecule": "CC1(C)C(C(=O)Nc2ccc(S(=O)(=O)c3ccc(NC(=O)C4C(C)(C)C4(C)C)cc3)cc2)C1(C)C",
    "inhibition (%)": -4.5
  },
  {
    "Molecule": "O=P(O)(NCCCl)NCCCl",
    "inhibition (%)": -45.9
  },
  {
    "Molecule": "Cc1c2ccncc2c(C)c2c1[nH]c1ccccc12",
    "inhibition (%)": 99.7
  },
  {
    "Molecule": "NC(Cc1ccc(N(CCCl)CCCl)cc1)C(=O)O (stereo not drawn)",
    "inhibition (%)": 11.8
  }
]

----------
test system: Aerobactin synthetase IucA (Klebsiella pneumoniae, hypervirulent); test: IucA enzyme inhibition, biochemical, LOPAC library, absorbance readout (AID 1346212); details: IucA enzyme assay, absorbance (OD) readout; stronger effect = lower value;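 tested at 8 µM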;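 also: 100% = no compound wells and 0% = no enzyme wells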
Measurement name: remaining activity (%)

[
  {
    "Compound": "C=CCN(C1=NCCN1)c1c(Cl)cccc1Cl",
    "Measurement name": "remaining activity",
    "Measured value": 95.7
  },
  {
    "Compound": "CC(C(=O)O)c1cccc(C(=O)c2ccccc2)c1 (stereo unspecified)",
    "Measurement name": "remaining activity",
    "Measured value": 120
  },
  {
    "Compound": "CC(C)(Oc1ccc(C2CC2(Cl)Cl)cc1)C(=O)O (stereo unspecified)",
    "Measurement name": "remaining activity",
    "Measured value": 114
  },
  {
    "Compound": "C[N+](C)(CCCCCC[N+](C)(C)CCCN1C(=O)c2cccc3cccc(c23)C1=O)CCCN1C(=O)c2cccc3cccc(c23)C1=O",
    "Measurement name": "remaining activity",
    "Measured value": 100
  },
  {
    "Compound": "NCC#Cc1ccccc1",
    "Measurement name": "remaining activity",
    "Measured value": 96.6
  },
  {
    "Compound": "CC(Oc1ccc(Oc2cnc3ccc(Cl)cc3n2)cc1)C(=O)O (stereo unspecified)",
    "Measurement name": "remaining activity",
    "Measured value": 108
  }
]

----------
experiment: viability rescue of complex I mutant cybrids, primary screen, cell-based, galactose medium, ATP luminescence (AID 1645843); details: complex I mutant cybrid cells, 72 h, stronger effect = higher value;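 also: positive z means more ATP and so rescue of galactose-driven cybrid death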
Categories are assigned from the measured z-score using these intervals: bottom range = under -0.4, center range = from -0.4 up to 0.3, top range = 0.3 and over

[
  {
    "Molecule": "CN1[C@@H]2CC[C@H]1CC(OC(=O)N1Cc3ccccc3NC1=O)C2 (stereo partly specified)",
    "Discrete label": "top range"
  },
  {
    "Molecule": "CN(C)[C@@H]1C(=O)C(C(N)=O)=C(O)[C@@]2(O)C(=O)C3=C(O)c4c(O)cccc4[C@@](C)(O)[C@H]3C[C@@H]12",
    "Discrete label": "top range"
  },
  {
    "Molecule": "C[C@H]1CCC/C=C/C2C[C@H](O)C[C@H]2[C@H](O)/C=C/C(=O)O1 (stereo partly specified)",
    "Discrete label": "bottom range"
  },
  {
    "Molecule": "COc1ccc2c(c1)[nH]c1c(C)nccc12",
    "Discrete label": "bottom range"
  },
  {
    "Molecule": "C[C@]12CCC(=O)CC1CCC1C2CC[C@@]2(C)C1CC[C@]2(C)O (stereo partly specified)",
    "Discrete label": "center range"
  },
  {
    "Molecule": "S=C=Nc1cccc(C2(N3CCCCC3)CCCCC2)c1",
    "Discrete label": "top range"
  },
  {
    "Molecule": "NCC(O)c1cc(O)c(O)cc1F (stereo unspecified)",
    "Discrete label": "bottom range"
  },
  {
    "Molecule": "CCC(Oc1ccc(Cl)cc1)C(=O)OC1CC2CCC(C1)N2C (stereo unspecified)",
    "Discrete label": "center range"
  },
  {
    "Molecule": "Clc1ccc(C2=CCCC3CCC2N3)cn1 (stereo unspecified)",
    "Discrete label": "top range"
  },
  {
    "Molecule": "CCNC(=O)[C@H]1O[C@@H](n2cnc3c(N)ncnc32)[C@H](O)[C@@H]1O",
    "Discrete label": "center range"
  },
  {
    "Molecule": "Clc1ccc(N2CC3CCC(C2)N3)nn1",
    "Discrete label": "center range"
  },
  {
    "Molecule": "CN1CC[C@@]23CCCCC2C1Cc1ccc(O)cc13 (stereo partly specified)",
    "Discrete label": "top range"
  },
  {
    "Molecule": "O=C(O)c1ccc2[nH]cc(CCCCN3CC=C(c4ccccc4)CC3)c2c1",
    "Discrete label": "center range"
  },
  {
    "Molecule": "CCCCC/C=C\\C/C=C\\C/C=C\\C/C=C\\CCCC(=O)Nc1ccc(O)cc1",
    "Discrete label": "bottom range"
  },
  {
    "Molecule": "CC(C)(C)NCC(O)c1cc(Cl)c(N)c(Cl)c1 (stereo unspecified)",
    "Discrete label": "top range"
  },
  {
    "Molecule": "CN(C)[C@@H]1C(=O)C(C(N)=O)=C(O)[C@@]2(O)C(=O)C3=C(O)c4c(O)cccc4[C@@](C)(O)[C@H]3[C@H](O)[C@@H]12",
    "Discrete label": "bottom range"
  },
  {
    "Molecule": "CCn1cnc2c(Nc3cccc(Cl)c3)nc(N[C@@H]3CCCC[C@@H]3N)nc21",
    "Discrete label": "bottom range"
  },
  {
    "Molecule": "CCCn1c(=O)c2[nH]c(C3CCCC3)nc2n(CCCOC(=O)c2ccc(S(=O)(=O)F)cc2)c1=O",
    "Discrete label": "bottom range"
  },
  {
    "Molecule": "CC(C)(C)OC(=O)NC1[C@H]2CNC[C@@H]12 (stereo partly specified)",
    "Discrete label": "top range"
  },
  {
    "Molecule": "CCN(CC)CCOC(=O)C(O)(c1ccccc1)c1ccccc1",
    "Discrete label": "top range"
  },
  {
    "Molecule": "O[C@H]1[C@H](O)[C@@H](O)CN2CC[C@H](O)[C@H]12",
    "Discrete label": "top range"
  },
  {
    "Molecule": "Nc1ccc(CCN2CCN(c3cccc(C(F)(F)F)c3)CC2)cc1",
    "Discrete label": "bottom range"
  },
  {
    "Molecule": "O=C(O)C1=CCCN(CCOC(c2ccc(C(F)(F)F)cc2)c2ccc(C(F)(F)F)cc2)C1",
    "Discrete label": "top range"
  },
  {
    "Molecule": "CCCCCCCCCCCCCC(=O)O[C@@H]1[C@@H](C)[C@@]2(O)[C@@H](C=C(CO)C[C@@]3(O)C(=O)C(C)=C[C@@H]23)C2C(C)(C)[C@@]21OC(C)=O (stereo partly specified)",
    "Discrete label": "bottom range"
  },
  {
    "Molecule": "Cc1cccc(C(C)c2cnc[nH]2)c1C (stereo unspecified)",
    "Discrete label": "center range"
  },
  {
    "Molecule": "C=C1N[C@@H](Cc2ccc3[nH]cc(CCN(C)C)c3c2)CO1",
    "Discrete label": "center range"
  },
  {
    "Molecule": "c1ccc(CCCCN2CCC(c3ccccc3)CC2)cc1",
    "Discrete label": "top range"
  },
  {
    "Molecule": "CCCOc1ccc2[nH]cc(C3=CCNCC3)c2n1",
    "Discrete label": "center range"
  },
  {
    "Molecule": "Cn1cc(C(=O)C(=O)N[C@H]2CN3CCC2CC3)c2ccccc21",
    "Discrete label": "top range"
  },
  {
    "Molecule": "COc1ccc(C[C@H]2NC[C@H](O)[C@H]2OC(C)=O)cc1",
    "Discrete label": "bottom range"
  },
  {
    "Molecule": "CC(=O)[C@H]1CC[C@H]2[C@@H]3CC[C@H]4C[C@H](O)CC[C@]4(C)[C@H]3C(=O)C[C@]12C",
    "Discrete label": "center range"
  },
  {
    "Molecule": "CN1Cc2ccccc2[C@@H]2c3cccc4[nH]cc(c34)C[C@H]21",
    "Discrete label": "bottom range"
  },
  {
    "Molecule": "C[C@H]1CN(C2CCC(C#N)(c3ccc(F)cc3)CC2)CC[C@@]1(C(=O)O)c1ccccc1 (stereo partly specified)",
    "Discrete label": "top range"
  },
  {
    "Molecule": "C[C@@H]1O[C@@H](O[C@H]2C[C@@H](O)[C@]3(CO)[C@@H]4C(CC[C@]3(O)C2)[C@@]2(O)CC[C@H](C3COC(=O)C3)[C@@]2(C)C[C@H]4O)[C@H](O)[C@H](O)[C@H]1O (stereo partly specified)",
    "Discrete label": "bottom range"
  },
  {
    "Molecule": "CN1CCc2cc(O)cc3c2[C@H]1Cc1ccc(O)c(O)c1-3",
    "Discrete label": "bottom range"
  },
  {
    "Molecule": "CC(=O)[C@H]1CC[C@H]2[C@@H]3CCC4C[C@](C)(O)CC[C@]4(C)[C@H]3CC[C@]12C (stereo partly specified)",
    "Discrete label": "center range"
  },
  {
    "Molecule": "COc1cc2c(cc1OC)[C@@]13CCN4CC5=CCOC6CC(=O)N2C1C6C5CC43 (stereo partly specified)",
    "Discrete label": "center range"
  },
  {
    "Molecule": "Cc1nnc2ccc(-c3cccc(C(F)(F)F)c3)nn12",
    "Discrete label": "center range"
  },
  {
    "Molecule": "CCCN(CCC)[C@@H]1CCc2cccc(O)c2C1",
    "Discrete label": "center range"
  }
]
